System: CMV
Assay: Viral qPCR assay, CMV
Type: cell-based
Conditions: infected cells, ~72 hrs, viral genome copies by qPCR normalized to PPIA; read-out: CMV Cell EC50
Label key: satisfied means EC50 under 50 nM; not satisfied means EC50 of 50 nM or more.

[
  {
    "compound": "COc1nc2cc(-c3cnco3)c(O[C@H]3CCN4C(=O)OC[C@@H]4C3)cc2c(=O)n1Cc1ccc(C#N)cc1",
    "tested.system": "CMV",
    "discrete.label": "satisfied"
  }
]

Dear reviewer, please state whether O=C1OC[C@@H]2C[C@@H](Oc3cc4c(=O)n(Cc5ccc(Cl)cc5)c(OC5CCC(O)CC5)nc4cc3-c3cnn(C(F)F)c3)CCN12 (single isomer, unassigned) [Example 141] has EC50 strictly beneath 50 nM. not satisfied

Quick check: EC50 of Cc1nc2cc(-c3cnn(C(F)F)c3)c(O[C@H]3CCN4C(=O)OC[C@@H]4C3)cc2c(=O)n1Cc1ccc(C#N)cc1 under 50 nM? not satisfied

# strict comparison: is reported EC50 < 50 nM? input = Cc1nc2cc(C3CC(O)C3)c(O[C@H]3CCN4C(=O)OC[C@@H]4C3)cc2c(=O)n1Cc1ccc(Cl)cc1 (single isomer, unassigned) [Example 61] not satisfied

====

Target: Human cytomegalovirus DNA polymerase (Human cytomegalovirus (strain AD169) (HHV-5) (Human herpesvirus 5))
Test: CMV polymerase assay (AlphaLISA)
Details: HCMV polymerase 0.2 nM, 30 min pre-incubation, 60 minute at 37° C.
endpoint: pIC50
Scale: negative log10 of molar concentration, which is what pIC50 denotes.

[
  {
    "smiles.str": "COc1nc2ccn(Cc3ccc(Cl)cc3)c(=O)c2cc1O[C@H]1CCN2C(=O)OC[C@@H]2C1",
    "pIC50": 7.55
  },
  {
    "smiles.str": "O=C1OC[C@@H]2C[C@@H](Oc3cc4c(=O)n(Cc5ccc(Cl)cc5)ccc4cc3-c3cnn(C(F)F)c3)CCN12",
    "pIC50": 8.28
  },
  {
    "smiles.str": "O=C1OC[C@@H]2C[C@@H](Oc3cc(-c4cnco4)c4ncn(Cc5ccc(Cl)cc5)c(=O)c4c3)CCN12",
    "pIC50": 7.68
  }
]

Turning now to a further record.
The recorded pIC50 for entry O=C1OC[C@@H]2C[C@@H](Oc3ccc4ncn(Cc5ccc(Cl)cc5)c(=O)c4c3)CCN12 equals 7.57

====

Below, each entry is listed with its recorded pIC50.
Target: Human cytomegalovirus DNA polymerase (Human cytomegalovirus (strain AD169) (HHV-5) (Human herpesvirus 5))
Assay: CMV polymerase assay (AlphaLISA)
Details: HCMV polymerase 0.2 nM, 30 min pre-incubation, 60 minute at 37° C.
// returns pIC50 (minus log10 of molar concentration), number only

Worked cases, answers included:
[
  {
    "molecule": "CC(=O)N1CC[C@@H](Oc2cnc3ccn(Cc4ccc(Cl)cc4)c(=O)c3c2)C[C@H]1C (single isomer, unassigned)",
    "pIC50": 7.18
  },
  {
    "molecule": "CC(c1ccc(Cl)cc1)n1ccc2ncc(O[C@H]3CCN4C(=O)OC[C@@H]4C3)cc2c1=O (single isomer, unassigned)",
    "pIC50": 6.68
  },
  {
    "molecule": "COc1ccc(-c2cc3nc(C)n(Cc4ccc(Cl)cc4)c(=O)c3cc2O[C@H]2CCN3C(=O)OC[C@@H]3C2)nn1",
    "pIC50": 7.89
  }
]

The measured pIC50 associated with CN1CCN(c2ccc3ccn(Cc4ccc(Cl)cc4)c(=O)c3c2)CC1 reads 5.23
